These data points were gathered from ChEMBL document CHEMBL4402577.

test: Kinetic aqueous solubility of compound in DMSO by nephelometric analysis; type: physicochemical; conditions: read-out: Kinetic_solubility
QUANTITY_MEASURED: solubility kinetic (µM)
State the answer as a number, implicitly in µM.

Use these answered entries as a reference point.
> print(dat)
                            compound.string  test.value
1  CC(C)[C@H]1CC[C@H](n2c(=O)[nH]c3ncc(N)cc3c2=O)CC1          25
2  CC(=O)Nc1cnc2[nH]c(=O)n([C@H]3CC[C@H](C(C)(C)C)CC3)c(=O)c2c1         310
3  CC(=O)Nc1ccc2[nH]c(=O)n([C@H]3CC[C@H](C(C)C)CC3)c(=O)c2c1          73

Documented solubility kinetic of CC(C)[C@H]1CC[C@@H](n2c(=O)[nH]c3ncc(N)cc3c2=O)CC1 : 17

Documented solubility kinetic of CC(=O)Nc1cnc2[nH]c(=O)n([C@H]3CC[C@@H](C(C)C)CC3)c(=O)c2c1 : 15
